Tested on: PPARg:RXRa DBDmut IVT, anti-RXR (DBD mutation: RXRa K156A/R161A, NR concentration 270 nM, RXRa partner concentration 90 nM)
Assay Text: PBM binding z-score (relative to random genomic background probes); higher = stronger binding; sequences stand for … in GC…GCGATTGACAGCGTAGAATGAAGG
Measured Quantity: PBM binding z-score
Please give only the number in your answer, with no unit.

Task item: What value of PBM binding z-score has been recorded for this entry: `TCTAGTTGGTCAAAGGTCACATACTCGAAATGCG`
Reply: 3.45

Task item: Same question for `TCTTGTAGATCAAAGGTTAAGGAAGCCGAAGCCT` please.
Reply: 2.14

Task item: Same question for `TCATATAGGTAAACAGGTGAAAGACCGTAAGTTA` please.
Reply: 4.76

Task item: Same question for `AGTCAAAGTTCTGGACGAGGTAACGTAAAGCACG` please.
Reply: -0.983

Task item: Same question for `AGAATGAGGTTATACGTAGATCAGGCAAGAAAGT` please.
Reply: 3.76

Task item: Same question for `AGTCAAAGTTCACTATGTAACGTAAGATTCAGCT` please.
Reply: 0.152

Task item: Same question for `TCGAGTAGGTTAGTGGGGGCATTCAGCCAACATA` please.
Reply: 3.24

Task item: Same question for `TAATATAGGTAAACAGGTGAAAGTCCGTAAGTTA` please.
Reply: 6.47

Task item: Same question for `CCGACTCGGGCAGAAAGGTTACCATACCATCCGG` please.
Reply: -0.0361

Task item: Same question for `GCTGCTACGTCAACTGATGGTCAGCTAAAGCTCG` please.
Reply: -0.232

Task item: Same question for `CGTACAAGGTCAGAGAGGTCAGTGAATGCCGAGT` please.
Reply: 3.77

Task item: Same question for `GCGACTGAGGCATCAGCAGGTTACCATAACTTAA` please.
Reply: -0.328

Task item: Same question for `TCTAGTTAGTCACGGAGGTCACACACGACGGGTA` please.
Reply: 1.76

Task item: Same question for `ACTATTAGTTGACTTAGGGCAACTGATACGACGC` please.
Reply: -0.0413

Task item: Same question for `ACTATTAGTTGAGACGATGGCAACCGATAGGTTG` please.
Reply: 0.172

Task item: Same question for `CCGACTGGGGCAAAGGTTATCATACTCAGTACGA` please.
Reply: 4.35

Task item: Same question for `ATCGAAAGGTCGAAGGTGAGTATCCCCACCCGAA` please.
Reply: 0.0448

Task item: Same question for `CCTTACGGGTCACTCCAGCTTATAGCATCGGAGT` please.
Reply: 2.73

Task item: Same question for `CATACTGGGTCAGCTAGGCCAGAGTAGGGACGGC` please.
Reply: 4.6

Task item: Same question for `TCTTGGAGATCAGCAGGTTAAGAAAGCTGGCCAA` please.
Reply: 1.35

Task item: Same question for `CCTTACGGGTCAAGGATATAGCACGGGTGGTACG` please.
Reply: 1.81

Task item: Same question for `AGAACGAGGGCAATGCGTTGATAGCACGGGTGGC` please.
Reply: 2.94

Task item: Same question for `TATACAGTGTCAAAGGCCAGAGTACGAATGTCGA` please.
Reply: 0.051

Task item: Same question for `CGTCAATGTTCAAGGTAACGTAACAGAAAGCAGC` please.
Reply: -0.165

Task item: Same question for `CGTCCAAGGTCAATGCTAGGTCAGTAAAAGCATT` please.
Reply: 3.36

Task item: Same question for `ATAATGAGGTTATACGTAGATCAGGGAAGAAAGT` please.
Reply: 4.24
